The reported measurements were obtained from patent US20220226484A1.

assayDetails: Cell viability, PrestoBlue Assay
Type: cell-based, human
measurementParameters: human; read-out: Cell viability, % of the background corrected DMSO control value
experimentalReadout: viability at 1 µM

Q: Consider the molecule CN[C@@H]1C[C@H]2O[C@@](C)([C@@H]1OC)n1c3ccccc3c3c4c(c5c6ccccc6n2c5c31)C(=O)NC4 [staurosporine, Staurosporine, reference compound] and give its measured viability at 1 µM.
Result: < 75%

----------
System: WI-38 cells (human fetal lung fibroblast cells)
assayDetails: Fibroblast-to-myofibroblast transition assay, pro-collagen I alpha 1 expression
Format: cell-based
measurementParameters: 10 μM peptide and 5 ng/ml TGF-β, 48 h, cell lysates
Positions of bridges follow the written chain, without caps; N, C: chain ends. Non-standard residues stand in square brackets, D forms with d. Primed or numbered codes have the meaning given here. Chains are numbered I, II in the order given. No end group written: not given here. PEG12′ = not defined here
I'd appreciate it if you could supply Procollagen I Alpha 1 Mean (SEM) values for the items below.

Example entries and their recorded answers appear below.
{PEG12}KRVIRMCLGVGLLGDLAG ([PEG12′]KRVIRMCLGVGLLGDLAG) [SEQ ID NO: 16]	3980 (569) pg/mL
RVIRMCLNVGLLGEL(dA)G [SEQ ID NO: 27] (chain 1 RVIRMCLNVGLLGEL[dA]G; chain 2 RVIRMCLNVGLLGEL[dA]G; disulfide I:6-II:6)	4120 (677) pg/mL
RVIRMCLNVGNLGEL(dA)G (RVIRMCLNVGNLGEL[dA]G) [SEQ ID NO: 10]	4460 (235) pg/mL
RVIRMCLNVGLNGEL(dA)E (RVIRMCLNVGLNGEL[dA]E) [SEQ ID NO: 20]	4680 (377) pg/mL
RVIRMCLGVGLLGDLAGK{PEG12} (chain 1 RVIRMCLGVGLLGDLAGK(PEG12′); chain 2 RVIRMCLGVGLLGDLAGK(PEG12′); disulfide I:6-II:6) [SEQ ID NO: 28]	1830 (507) pg/mL

// next entry
Q: Consider the substance RVIRMCLNVGLLGEL(dA)G [SEQ ID NO: 5] (RVIRMCLNVGLLGEL[dA]G) and give its measured Procollagen I Alpha 1 Mean (SEM).
Result: 4200 (597) pg/mL

----------
System: 3T3-L1 Mouse Adipocytes
assayDetails: Insulin-dependent effect on free fatty acid levels in cultured mouse adipocytes
Type: cell-based
measurementParameters: peptide 10 μM alone, 3 hours; percent of isoproterenol (0.1 nM) treated control cells
Positions of bridges follow the written chain, without caps; N, C: chain ends. Non-standard residues stand in square brackets, D forms with d. Primed or numbered codes have the meaning given here. Chains are numbered I, II in the order given. No end group written: not given here. PEG12′ = not defined here; Nle = CCCC[C@H](N)C(=O)O
Short version: Free Fatty Acid Levels, MEAN % ISO, −Insulin at least 90% is true (1), less is false (0).

MRVIRMCLGVGLLGDLAG [SEQ ID NO: 2]	true (1)
RVIRMCLGVGLLGDLAGK{PEG12} (chain 1 RVIRMCLGVGLLGDLAGK(PEG12′); chain 2 RVIRMCLGVGLLGDLAGK(PEG12′); disulfide I:6-II:6) [SEQ ID NO: 28]	false (0)
{PEG12}KRVIRMCLGVGLLGDLAG ([PEG12′]KRVIRMCLGVGLLGDLAG) [SEQ ID NO: 16]	false (0)

Q: Would you say RVIRMCLGVGLLGDLAG [SEQ ID NO: 3] shows Free Fatty Acid Levels, MEAN % ISO, −Insulin at minimum 90%?
Result: true (1)

Q: Would you say RVIRMCLNNGLLGEL(dA)G (RVIRMCLNNGLLGEL[dA]G) [SEQ ID NO: 9] shows Free Fatty Acid Levels, MEAN % ISO, −Insulin at minimum 90%?
Result: true (1)

Q: Would you say RVIR(Nle)SLNVGLLGEL(dA)G (RVIR[Nle]SLNVGLLGEL[dA]G) [SEQ ID NO: 8] shows Free Fatty Acid Levels, MEAN % ISO, −Insulin at minimum 90%?
Result: false (0)

----------
Test system: A172 human brain glioblastoma cell line
assayDetails: Caspase 3/7 activity (Caspase-Glo 3/7 Assay)
Format: cell-based
measurementParameters: peptide 10 μM, 18-20 hours, relative to 0.1% DMSO control
Non-standard residues stand in square brackets, D forms with d. No end group written: not given here.
experimentalReadout: Caspase 3/7 Activity, Percent of Control Activity (%)
Numbers only, in %.

RVIRMCLNVGLLGEL(dA)G [SEQ ID NO: 5] (RVIRMCLNVGLLGEL[dA]G)	107.0
RVIRMCLGVGLLGDLAG [SEQ ID NO: 3]	109.4
RVIRMCLGVGLLGDL(dA)G (RVIRMCLGVGLLGDL[dA]G) [SEQ ID NO: 4]	112.4

// next entry
Q: Consider the substance MRVIRMCLGVGLLGDLAG [SEQ ID NO: 2] and give its measured Caspase 3/7 Activity, Percent of Control Activity.
Result: 109.3

----------
Tested on: H4IIE Rat Hepatoma Cells
assayDetails: Insulin-dependent effect on glucose production by cultured rat liver cells
Format: cell-based
measurementParameters: peptide 10 μM + insulin 800 pM, 24 hour; percent of insulin (800 pM)
Non-standard residues stand in square brackets, D forms with d. Primed or numbered codes have the meaning given here. No end group written: not given here. PEG12′ = not defined here
Short version: Glucose Levels, MEAN % Control, +Insulin at least 50% is t, less is f.

Here's what some known entries look like.
RVIRMCLNVGNLGEL(dA)G (RVIRMCLNVGNLGEL[dA]G) [SEQ ID NO: 10]	f
RVIRMCLNNGLNGEL(dA)G (RVIRMCLNNGLNGEL[dA]G) [SEQ ID NO: 22]	f

Q: Would you say RVIRMCLGVGLLGDL(dA)G (RVIRMCLGVGLLGDL[dA]G) [SEQ ID NO: 4] shows Glucose Levels, MEAN % Control, +Insulin at minimum 50%?
Result: t

Q: Would you say MRVIRMCLGVGLLGDLAG [SEQ ID NO: 2] shows Glucose Levels, MEAN % Control, +Insulin at minimum 50%?
Result: t

Q: Would you say {PEG12}KRVIRMCLGVGLLGDLAG ([PEG12′]KRVIRMCLGVGLLGDLAG) [SEQ ID NO: 16] shows Glucose Levels, MEAN % Control, +Insulin at minimum 50%?
Result: t

Q: Would you say RVIRMCLGVGLLGDLAGK{PEG12} (RVIRMCLGVGLLGDLAGK(PEG12′)) [SEQ ID NO: 17] shows Glucose Levels, MEAN % Control, +Insulin at minimum 50%?
Result: f

----------
Tested on: A172 Cells
assayDetails: Cell viability, PrestoBlue Assay
Format: cell-based, human
measurementParameters: peptide 10 μM, 18-20 hours, relative to 0.1% DMSO control
Non-standard residues stand in square brackets, D forms with d. No end group written: not given here.
experimentalReadout: PrestoBlue Assay, Percent of Control Activity (%)
Give bare numbers, in %.

MRVIRMCLGVGLLGDLAG [SEQ ID NO: 2]	100.0
RVIRMCLGVGLLGDL(dA)G (RVIRMCLGVGLLGDL[dA]G) [SEQ ID NO: 4]	97.7
RVIRMCLGVGLLGDLAG [SEQ ID NO: 3]	98.9

// next entry
Q: Consider the substance RVIRMCLNVGLLGEL(dA)G [SEQ ID NO: 5] (RVIRMCLNVGLLGEL[dA]G) and give its measured PrestoBlue Assay, Percent of Control Activity.
Result: 96.9

----------
I'd appreciate it if you could supply Free Fatty Acid Levels, MEAN % ISO, −Insulin values for the items below.
System: 3T3-L1 Mouse Adipocytes
assayDetails: Insulin-dependent effect on free fatty acid levels in cultured mouse adipocytes
Format: cell-based
measurementParameters: peptide 10 μM alone, 3 hours; percent of isoproterenol (0.1 nM) treated control cells
Non-standard residues stand in square brackets, D forms with d. Primed or numbered codes have the meaning given here. No end group written: not given here. PEG12′ = not defined here; Nle = CCCC[C@H](N)C(=O)O
Report field: quantity (unit follows the number).

Would you mind giving Free Fatty Acid Levels, MEAN % ISO, −Insulin for every substance in the list below?
1. RVIRMCLNVGLEGEL(dA) (RVIRMCLNVGLEGEL[dA]) [SEQ ID NO: 19]
2. RVIRMCLGVGLLGDL(dA)G (RVIRMCLGVGLLGDL[dA]G) [SEQ ID NO: 4]
3. RVIR(Nle)CLNVGLLGEL(dA)G (RVIR[Nle]CLNVGLLGEL[dA]G) [SEQ ID NO: 6]
4. RVIRMCLNVGLNGE [SEQ ID NO: 21]
5. RVIRMCLNVGLNGEL(dA)E (RVIRMCLNVGLNGEL[dA]E) [SEQ ID NO: 20]
6. RVIRMSLNVGLLGEL(dA)G (RVIRMSLNVGLLGEL[dA]G) [SEQ ID NO: 7]

Result:
67.1%
92.9%
93.6%
102%
102%
91.1%

Q: Consider the substance RVIRMCLGVGLLGDLAGK{PEG12} (RVIRMCLGVGLLGDLAGK(PEG12′)) [SEQ ID NO: 17] and give its measured Free Fatty Acid Levels, MEAN % ISO, −Insulin.
Result: 102%
